Hello, the source for this data is ChEMBL document CHEMBL5055681, in case you need it.

# Test system: Staphylococcus aureus
# assay_notes: Antimicrobial activity against Staphylococcus aureus ATCC 25923 assessed as bacterial growth inhibition measured after 24 hrs by CLSI based agar dilution method
# Assay type: functional
measurement_type: MIC (µg/mL)

compound: O=c1c(O)c(-c2ccc(O)c(O)c2)oc2cc(O)cc(O)c12 [QUERCETIN]
units_symbol: µg/mL
numeric_readout: 250
//
compound: COc1cc(/C=C/C(=O)CC(=O)/C=C/c2ccc(O)c(OC)c2)ccc1O [CURCUMIN]
units_symbol: µg/mL
numeric_readout: 250
//
compound: O=C(/C=C/c1ccccc1)c1ccccc1 [CHALCONE]
units_symbol: µg/mL
numeric_readout: 125
//
compound: COc1ccc2cc3[n+](cc2c1OC)CCc1cc2c(cc1-3)OCO2 [BERBERINE]
units_symbol: µg/mL
numeric_readout: 125
